system: Human monocyte cell line THP-1; assay: Detection of THP-1 cell pyroptosis (Caspase-Glo 1 Inflammasome Assay); format: cell-based; details: Homo sapiens, THP-1, THP-1 pyroptosis, 20 nM PMA 48 h, 1 μg/mL LPS, compound 3 h
The entries below are paired with their reported IC50.

>  <compound structure string>
C[C@H](c1ccc2c(c1NC(=O)NS(=O)(=O)c1cc(C(C)(C)O)co1)CCC2)C1CC1

>  <IC50>
≤ 100 nM

$$$$
>  <compound structure string>
C[C@H](c1cc(C#N)c2c(c1NC(=O)NS(=O)(=O)c1cc(C(C)(C)O)co1)CCC2)C1CC1

>  <IC50>
500 to 1000 nM

$$$$
>  <compound structure string>
C[C@@H](c1ccc2c(c1NC(=O)NS(=O)(=O)c1sc(C(C)(C)O)cc1C#N)CCC2)C1CC1

>  <IC50>
≤ 100 nM

$$$$
>  <compound structure string>
CC(C)(O)c1coc(S(=O)(=O)NC(=O)Nc2c(CC3CCCC3)ccc3c2CCC3)c1

>  <IC50>
500 to 1000 nM

$$$$
